biological target: T1, human wild-type EGFR protein on the cell surface (human, UniProt P00533 25-1210); test: FACS, MFI on A431 cells over MFI on normal primary hepatocytes
T1 construct: whole, on cells; Endogenous on A431, HEB, U87MG cells and normal human primary hepatocytes; transfected on CHOk1-EGFR cells; The cell is named under assay; also called A431; HEB

BINDER	Selective window (MFI A431/Hepatocytes) [fold]
Humanized antibody h75G7C6-9 (antibody, human IgG1, V domains shown, also called VH-g1/VL-g0) VH: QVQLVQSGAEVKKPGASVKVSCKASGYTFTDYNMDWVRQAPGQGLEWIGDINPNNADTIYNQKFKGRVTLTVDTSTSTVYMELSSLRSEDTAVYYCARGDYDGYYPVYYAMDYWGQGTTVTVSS VL: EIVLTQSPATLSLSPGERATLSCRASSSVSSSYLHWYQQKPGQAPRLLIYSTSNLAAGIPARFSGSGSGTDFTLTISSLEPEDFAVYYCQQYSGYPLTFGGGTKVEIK	45
